The origin of these recorded values is paper PMC9643279.

- target-or-test-system: PGK1 (Homo sapiens)
- Sequence (P00558 1-417): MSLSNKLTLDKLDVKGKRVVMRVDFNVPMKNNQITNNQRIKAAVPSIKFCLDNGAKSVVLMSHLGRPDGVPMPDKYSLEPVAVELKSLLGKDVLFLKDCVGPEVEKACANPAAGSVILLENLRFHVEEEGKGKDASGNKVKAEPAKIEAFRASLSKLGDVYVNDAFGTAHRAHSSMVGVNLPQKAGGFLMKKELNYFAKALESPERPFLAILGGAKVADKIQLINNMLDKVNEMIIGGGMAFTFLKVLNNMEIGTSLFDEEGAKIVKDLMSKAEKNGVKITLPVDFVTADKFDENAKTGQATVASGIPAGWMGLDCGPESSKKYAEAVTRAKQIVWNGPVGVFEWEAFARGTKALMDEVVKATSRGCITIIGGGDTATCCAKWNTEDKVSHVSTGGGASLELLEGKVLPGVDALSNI
- measurement-protocol: Steady-state kinetic assay in the presence of gradient compound concentrations
- experimental-conditions: Ki, ATP competitive, varying ATP, saturating 3-PG; competitive model
outcome-measure: Ki (µM)
A number alone suffices; assume µM.

[Q] Annotate the compound CCOC(=O)c1nc2cc(Cl)c(Cl)cc2nc1N1CCCN(C(=O)CC)CC1 with its measured Ki.
[A] 2.59

###

The next entries give measured pIC50 for PGK1 (Homo sapiens, UniProt P00558).
By convention, pIC50 is the negative base-10 log of a molar concentration.

Would you please look over these solved cases?
compound	outcome-measure	measured
c1cc(-c2cnn3cc(-c4ccc(OCCN5CCCCC5)cc4)cnc23)ccn1	pIC50	5.17
CN(C)C(=O)CCSC(SCCC(=O)O)c1cccc(/C=C/c2ccc3ccc(Cl)cc3n2)c1 (stereo not shown)	pIC50	4.60
CC(C)[C@H](CO)Nc1nc(Nc2cccc(Cl)c2)c2ncn(C(C)C)c2n1	pIC50	5.71

[Q] Complete the entry with pIC50 for CCOC(=O)c1nc2cc(Cl)c(Cl)cc2nc1N1CCCN(C(=O)CC)CC1
[A] 5.64
